Data provenance: the NIST ThermoML archive (doi:10.1021/je900502s)

RECORDED_CONDITIONS: 298.15 K; 101.33 kPa; Liquid; Pycnometric method
Numbers after ± are expanded uncertainties.
Catalogue of mass density readings, one per entry.
MEASURED_PARAMETER: mass density

compound="CCCCCCCC[n+]1ccn(C)c1.F[B-](F)(F)F [1-methyl-3-octylimidazolium tetrafluoroborate]" measured_parameter="mass density" endpoint_value="1115 ± 46 kg/m3"
compound="CCCCn1cc[n+](C)c1.F[B-](F)(F)F [1-butyl-3-methylimidazolium tetrafluoroborate]" measured_parameter="mass density" endpoint_value="1217 ± 12 kg/m3"
compound="CCCCCCCC[N+](C)(CCCCCCCC)CCCCCCCC.N#C[N-]C#N [N,N,N-trioctyl-N-methylammonium dicyanamide]" measured_parameter="mass density" endpoint_value="890 ± 3 kg/m3"
compound="CCCCCCCCCCCCCC[P+](CCCCCC)(CCCCCC)CCCCCC.Cc1ccc(S(=O)(=O)[O-])cc1 [tetradecyl(trihexyl)phosphonium tosylate]" measured_parameter="mass density" endpoint_value="1003 ± 22 kg/m3"
compound="CCCCCCCC[N+](C)(CCCCCCCC)CCCCCCCC.[Cl-] [N-methyl-N,N-dioctyl-1-octanaminium chloride]" measured_parameter="mass density" endpoint_value="896 ± 18 kg/m3"
compound=CCCCCCN(CCCCCC)C(N(C)C)=[N+](CCCCCC)CCCCCC.[Cl-] measured_parameter="mass density" endpoint_value="943 ± 50 kg/m3"
